# Tested on: Wolbachia pipientis
# procedure_text: Anti-Wolbachia Cell-Based Screen
# Assay type: functional
# Design: scale not given: in the data most compounds retested in dose-response had high values
# study_conditions: 5 µM
Screen size: about 48,000 compounds; about 13,000 (27%) showed an effect of 50% or more. Some of the results follow.
Hi there, I'd appreciate the recorded Percent Effect for every entry that follows.
Answers are plain numbers, in %.

molecule: Cc1nn(C)c2nc(N(CCOc3ccccc3)CC3CCCO3)sc12 (stereo not given)
recorded_measurement: -19.55
--
molecule: CC(C)(C)CN1CCOC[C@H]1c1nc(-c2cccc(F)c2)c[nH]1
recorded_measurement: 4.483
--
molecule: N#Cc1ccccc1NC(=O)c1ccc2c(c1)OCO2
recorded_measurement: 136.5
--
molecule: Cc1cccc(N2CC[C@H]3[C@H](CO[C@@H]3CN(C)Cc3ccco3)C2)n1.O=C(O)C(F)(F)F.O=C(O)C(F)(F)F
recorded_measurement: 52.12
--
molecule: CC(C)OCCN1CCN(C(=O)c2cccc(-n3cccn3)n2)CC1
recorded_measurement: -4.895

Please look at the items below and tell me Percent Effect for each one, in order.
1. Cc1ccc(N2CC[C@H]3CO[C@H](CN(C)Cc4ccco4)[C@H]3C2)nn1.O=C(O)C(F)(F)F.O=C(O)C(F)(F)F
2. COc1ccc2cc(CN(C)CCN3CCCCC3=O)c(=O)[nH]c2c1
3. COCCN(CCC#N)S(=O)(=O)c1ccc(F)cc1F
4. CC(C)=CCC/C(C)=C\CNCc1ccco1
5. CCc1noc(CN(C)CCC(=O)Nc2ccccc2C#N)n1

95.46
1.998
3.199
-4.355
9.134
